system: CAKI-1 renal; experiment: NCI tumour cell line growth inhibition, 48 h; in the data active = GI50 below about 0.43 µM; inactive = the rest
Hi! Could you answer with just one of these? active, inactive

Worked cases, answers included:
- compound: "COc1ccc(-c2csc(NC(=O)CN3CCN(c4cc5c(cc4F)c(=O)c(C(=O)O)cn5C4CC4)CC3)n2)cc1"
  group_label: "inactive"
- compound: "CCCCCCCCCCCCCC[n+]1ccc(C)cc1"
  group_label: "inactive"
- compound: "CCCCOC1OC(COC(=O)C(C)C)C(OC(=O)C(C)C)C(O)C1OC1OC(C)C(OC(=O)CCC)C(OC(=O)C(C)C)C1O (centres undefined)"
  group_label: "inactive"
- compound: "COc1ccc(C(=O)c2sc3nc(-c4cccs4)ccc3c2N)cc1OC"
  group_label: "inactive"
- compound: "COc1cc2c(c(OC)c1OC)-c1ccc(N=NC(N)=S)c(=O)cc1[C@@H](NC(C)=O)CC2"
  group_label: "inactive"
- compound: "Cc1cccc2c3c(sc12)C(c1ccc(F)cc1)C(C#N)=C(N)O3 (centres undefined)"
  group_label: "active"

Now for a further compound.
Each compound tested received a call. Report the one for CC([O-])=C1C(=O)c2ccccc2C1=O.CC([O-])=C1C(=O)c2ccccc2C1=O.CC[O-].CC[O-].[Ti+4] .
inactive

Each recorded value in this set is attributed to PubChem BioAssay (NCI).
